Give emission maximum for every item shown.
assay: solvent given as SMILES; conditions: in ClCCl
For clarity, give the value followed by its unit.

- compound: "N#Cc1cc(/C=C/c2ccc(/C=C/c3ccc(N(c4ccccc4)c4ccccc4)cc3)c(C#N)c2)ccc1/C=C/c1ccc(N(c2ccccc2)c2ccccc2)cc1"
  endpoint_value: "577 nm"

For every item in the list below, what is its measured emission maximum?
1. CCN(CC)c1ccc2cc(/C=C/C3=CC(/C=C/c4cc5ccc(N(CC)CC)cc5oc4=O)=[O+][B-](F)(F)O3)c(=O)oc2c1
2. Cc1ccc(N(c2ccc(C)cc2)c2ccc(Oc3nnc(Cl)nn3)cc2)cc1
3. CCCCCCN1C(=O)c2cccc3c(-c4ccc(-c5cc(-c6ccc(OC)cc6)n(-c6ccccc6)n5)s4)ccc(c23)C1=O
4. F[B-]1(F)n2cccc2C(c2ccc(-c3c4ccccc4c(-c4ccccc4)c4ccccc34)cc2)=C2C=CC=[N+]21
5. CCCCN(CCCC)c1ccc(C#Cc2cc(C#Cc3ccc(N(CCCC)CCCC)cc3)c(C#Cc3c(F)c(F)c(F)c(F)c3F)cc2C#Cc2c(F)c(F)c(F)c(F)c2F)cc1
6. CC1=C(c2ccccc2)C(C)=[N+]2C1=C(c1c(-c3ccccn3)nc3ccccn13)c1c(C)c(-c3ccccc3)c(C)n1[B-]2(F)F
7. CC[B-]1(CC)c2cccc3c4c5c(cccc5c(c23)-c2cccc(C)[n+]21)[B-](CC)(CC)[n+]1c(C)cccc1-4

Result string:
["705 nm", "550 nm", "521 nm", "518 nm", "555 nm", "585 nm", "620 nm"]

Batch of 8 compounds: report emission maximum for each.
1. CC(C)(C)c1ccc(-c2nc3c4ccc(-c5cccc6ccccc56)cc4c4cc(-c5cccc6ccccc56)ccc4c3n2-c2ccc(C(C)(C)C)cc2)cc1
2. CC(C)(C)c1ccc2c(c1)c1cc(C(C)(C)C)ccc1n2-c1ccc(-c2cccs2)s1
3. C(=C\c1ccncn1)/c1ccc(N(c2ccccc2)c2ccccc2)cc1
4. Cc1cc(O)c(C(=O)/C=C/c2ccc(Cl)cc2Cl)c(=O)o1
5. N#CSC1=CC2=C(c3ccccc3)c3ccc(SC#N)n3[B-](F)(F)[N+]2=C1N1CCOCC1
6. CCCCN(CCCC)c1ccc(/C=C/c2ccc3nc(/C=C/c4ccc(N(C)C)cc4)c(-c4ccccc4)nc3c2)cc1
7. COc1ccc(-c2ccc(/C=C/c3cnc4ccccc4n3)cc2)cc1
8. COC(=O)CNC(=O)c1nc2c(N(C)C)nc(N(C)C)nc2n1Cc1ccccc1

Result string:
["388 nm", "417 nm", "526 nm", "472 nm", "594 nm", "615 nm", "485 nm", "407 nm"]

Hey, can you go through the list below and give me emission maximum for every item?
1. c1ccc(N(c2ccccc2)c2ccc(-c3ccc(-c4cc(-c5ccccn5)nc(-c5ccccn5)c4)cc3)cc2)cc1
2. CC(=O)c1c(N[C@@H](Cc2ccc(O)cc2)C(=O)O)c2ccc(N(C)C)cc2oc1=O
3. Cc1ccc(O)c(-c2[nH]c(=O)n3c2-c2ccccc2C3=O)c1
4. c1cc2ccc3cc4cccc5ccc6cc(c1)c2c3c6c54

Result string:
1. 489 nm
2. 415 nm
3. 475 nm
4. 437 nm

###

test: solvent given as SMILES; details: in CC#N
Consider the following compounds; for each one, report its emission maximum.
Answers are plain numbers, in nm.

Sample answers from the record:
- compound: "Cc1cccc2c1nc1c(=O)n(C)c(=O)nc-1n2C"
  emission maximum, nm: 493
- compound: "N#C/C(=C\\c1ccc(Cl)cc1)c1nc(-c2ccccc2)c(-c2ccccc2)s1"
  emission maximum, nm: 501
- compound: "CCOC(=O)/C(C#N)=C/c1cc2c3ccccc3n(C)c2cc1OC"
  emission maximum, nm: 486
- compound: "F[B-]1(F)OC(c2ccc3ccccc3c2)=CC(c2ccc3ccccc3c2)=[O+]1"
  emission maximum, nm: 510
- compound: "Cc1ccc(-c2cc(-c3ccccc3)c(C#N)c(=S)[nH]2)cc1"
  emission maximum, nm: 488
- compound: "O=c1cccc2n1C[C@@H]1CNC[C@H]2C1"
  emission maximum, nm: 380
- compound: "COc1cc(Br)cc2cc(-c3cc4cc(Br)cc(OC)c4oc3=O)oc12"
  emission maximum, nm: 381
- compound: "COc1ccc(-c2csc(/C(C#N)=C/c3ccc(C#N)cc3)n2)cc1"
  emission maximum, nm: 561

Hi, could you look up emission maximum for each item in my list?
1. O=C1Cc2cc3c(cc2CCCc2ccc(cc2)CCC3)CC(=O)Cc2ccc(c3nsnc23)C1
2. c1ccc(-c2cc(-c3ccc(N(c4ccccc4)c4ccccc4)cc3)cc(-c3ccccc3)n2)cc1

Result string:
1: 544; 2: 489

Provide emission maximum values for the following items, in order.
1. CC(C)(C)c1ccc2c3c(c4ccc(C(C)(C)C)cc4c2c1)=[N+]1C(=C(c2ccccc2)c2cc4c5ccc(C(C)(C)C)cc5c5cc(C(C)(C)C)ccc5c4n2[B-]1(F)F)C=3
2. CC(C)(C)c1ccc(-c2nc3c4ccc(-c5cccc6ccccc56)cc4c4cc(-c5cccc6ccccc56)ccc4c3n2-c2ccc(C(C)(C)C)cc2)cc1
3. O=C(O)c1ccccc1Nc1cccc(C(F)(F)F)c1
4. CC(C)c1ccc(-c2nc(-c3ccccc3)c3ccccn23)cc1
5. O=C1C=CC2=Cc3ccccc3B(O)N12

Result string:
[712, 391, 426, 478, 412]

For each of the items listed, what is its emission maximum?
1. CCCCCCCCCCCCC(CCCCCCCCCC)Cn1c2cc(C=C(C#N)C#N)c3cccc4c5cccc6c(C=C(C#N)C#N)cc1c(c65)c2c34 (stereo not drawn)
2. Nc1ccc2c(c1)Cc1ccccc1-2
3. COc1ccc2c(c1)sc1[n+]2[B-](F)(F)OC(c2ccc(N(C)C)cc2)=N1
4. CCCCCCCCCCCCC(CCCCCCCCCC)Cn1c2cc(/C=C/c3nc4ccccc4s3)c3cccc4c5cccc6c(/C=C/c7nc8ccccc8s7)cc1c(c65)c2c34 (stereo not drawn)
5. CCOC(=O)c1ccc(NC(=O)COc2cc3c4c([nH]c3c(C)c2C)C(=O)CCC4)cc1
6. c1ccc(-c2nc(-c3cccc4ccccc34)n3ccccc23)cc1
7. CCN(CC)c1ccc2cc(-c3cn4ccccc4n3)c(=O)oc2c1

Result string:
641
363
481
581
422.39
480
475

For each listed entry, give its emission maximum.
1. O=c1[nH]cc(F)c(=O)[nH]1
2. C=CCNc1ccc2ccc3oc4cc(=[N+]5CCCC5)ccc-4nc3c2c1
3. Cc1cc(C(F)(F)F)nc2c1ccc1nc(-c3ccc(F)c(F)c3)cn12
4. CCCN(c1ccccc1)c1ccc2c(c1)C(CC)(CC)c1cc(/C=C/c3ccc(/C=C(\C#N)C(=O)O)s3)ccc1-2

Result string:
1: 322; 2: 635; 3: 460; 4: 531

Each compound below has a recorded value; state its emission maximum.
1. CCC1=C(C)C2=Cc3c4ccccc4c4n3[B-](c3ccccc3)(Oc3ccccc3-4)[N+]2=C1C (stereo not drawn)
2. CCC1=C(C)C2=Cc3c4ccccc4c4n3[B-](c3ccncc3)(Oc3ccccc3-4)[N+]2=C1C=Cc1ccc(OC)cc1 (stereo not drawn)

Result string:
1. 634
2. 712
